What follows is a collection of Average (percentage cell inhibition), Dmastoparan MDA-MB231 12.5uM values obtained with MDA-MB-231 cells.
Answers are plain numbers, in %.

# example entries with known answers
{"COMPOUND": "CC[C@H](C)[C@H](N)C(=O)N[C@@H](CC(N)=O)C(=O)N[C@@H](CC(C)C)C(=O)N[C@@H](CCCCN)C(=O)N[C@@H](C)C(=O)N[C@@H](CC(C)C)C(=O)N[C@@H](C)C(=O)N[C@@H](C)C(=O)N[C@@H](CC(C)C)C(=O)N[C@@H](C)C(=O)N[C@@H](CCCCN)C(=O)N[C@@H](CCCCN)C(=O)N[C@H](C(=O)N[C@@H](CC(C)C)C(N)=O)[C@@H](C)CC [Lab Mastoparan L, reference compound]", "UNIT_OF_MEASUREMENT": "%", "READOUT_NUMBER": 41.709}
{"COMPOUND": "CC[C@H](C)[C@H](N)C(=O)N[C@@H](CC(N)=O)C(=O)N[C@@H](CC(C)C)C(=O)N1CCC[C@H]1C(=O)N[C@@H](C)C(=O)N[C@@H](CC(C)C)C(=O)N[C@@H](C)C(=O)N[C@@H](C)C(=O)N[C@@H](CC(C)C)C(=O)N[C@@H](C)C(=O)N[C@@H](CCCCN)C(=O)N[C@@H](CCCCN)C(=O)N[C@H](C(=O)N[C@@H](CC(C)C)C(N)=O)[C@@H](C)CC", "UNIT_OF_MEASUREMENT": "%", "READOUT_NUMBER": 10.9719}
{"COMPOUND": "CC[C@H](C)[C@H](N)C(=O)N[C@@H](CC(N)=O)C(=O)N[C@@H](CC(C)C)C(=O)N[C@@H](CCCCN)C(=O)N[C@@H](C)C(=O)N[C@@H](CC(C)C)C(=O)N[C@@H](C)C(=O)N[C@@H](C)C(=O)N[C@@H](CC(C)C)C(=O)N[C@@H](C)C(=O)N[C@@H](CCCCN)C(=O)N[C@@H](CCCCN)C(=O)N[C@H](C(=O)N[C@H](C(N)=O)C(C)C)[C@@H](C)CC", "UNIT_OF_MEASUREMENT": "%", "READOUT_NUMBER": 42.849}
{"COMPOUND": "CC[C@H](C)[C@H](N)C(=O)N[C@@H](CC(N)=O)C(=O)N[C@@H](CC(C)C)C(=O)N[C@@H](CCCNC(=N)N)C(=O)N[C@@H](C)C(=O)N[C@@H](CC(C)C)C(=O)N[C@@H](C)C(=O)N[C@@H](C)C(=O)N[C@@H](CC(C)C)C(=O)N[C@@H](C)C(=O)N[C@@H](CCCCN)C(=O)N[C@@H](CCCCN)C(=O)N[C@H](C(=O)N[C@@H](CC(C)C)C(N)=O)[C@@H](C)CC", "UNIT_OF_MEASUREMENT": "%", "READOUT_NUMBER": 36.9563}
{"COMPOUND": "CC[C@H](C)[C@H](N)C(=O)N[C@@H](CC(N)=O)C(=O)N[C@@H](Cc1c[nH]cn1)C(=O)N[C@@H](CCCCN)C(=O)N[C@@H](C)C(=O)N[C@@H](CC(C)C)C(=O)N[C@@H](C)C(=O)N[C@@H](C)C(=O)N[C@@H](CC(C)C)C(=O)N[C@@H](C)C(=O)N[C@@H](CCCCN)C(=O)N[C@@H](CCCCN)C(=O)N[C@H](C(=O)N[C@@H](CC(C)C)C(N)=O)[C@@H](C)CC", "UNIT_OF_MEASUREMENT": "%", "READOUT_NUMBER": 10.8919}
{"COMPOUND": "CC[C@H](C)[C@H](N)C(=O)N[C@@H](CC(N)=O)C(=O)N[C@@H](CC(C)C)C(=O)N[C@@H](CCCCN)C(=O)N[C@@H](C)C(=O)N[C@@H](CC(C)C)C(=O)N[C@@H](C)C(=O)N[C@@H](C)C(=O)N[C@@H](CC(C)C)C(=O)N[C@@H](C)C(=O)N[C@H](C(=O)N[C@@H](CCCCN)C(=O)N[C@H](C(=O)N[C@@H](CC(C)C)C(N)=O)[C@@H](C)CC)C(C)C", "UNIT_OF_MEASUREMENT": "%", "READOUT_NUMBER": 50.781}
{"COMPOUND": "CC[C@H](C)[C@H](N)C(=O)N[C@@H](CC(N)=O)C(=O)N[C@@H](CC(C)C)C(=O)N[C@@H](CCCCN)C(=O)N[C@@H](C)C(=O)N[C@@H](CC(C)C)C(=O)N[C@@H](C)C(=O)N1CCC[C@H]1C(=O)N[C@@H](CC(C)C)C(=O)N[C@@H](C)C(=O)N[C@@H](CCCCN)C(=O)N[C@@H](CCCCN)C(=O)N[C@H](C(=O)N[C@@H](CC(C)C)C(N)=O)[C@@H](C)CC", "UNIT_OF_MEASUREMENT": "%", "READOUT_NUMBER": 8.428}
{"COMPOUND": "CC[C@H](C)[C@H](N)C(=O)NCC(=O)N[C@@H](CC(C)C)C(=O)N[C@@H](CCCCN)C(=O)N[C@@H](C)C(=O)N[C@@H](CC(C)C)C(=O)N[C@@H](C)C(=O)N[C@@H](C)C(=O)N[C@@H](CC(C)C)C(=O)N[C@@H](C)C(=O)N[C@@H](CCCCN)C(=O)N[C@@H](CCCCN)C(=O)N[C@H](C(=O)N[C@@H](CC(C)C)C(N)=O)[C@@H](C)CC", "UNIT_OF_MEASUREMENT": "%", "READOUT_NUMBER": 71.0378}
{"COMPOUND": "CC[C@H](C)[C@H](N)C(=O)N[C@@H](CC(N)=O)C(=O)N[C@@H](CC(C)C)C(=O)N[C@@H](CCCCN)C(=O)N[C@@H](C)C(=O)N[C@@H](CC(C)C)C(=O)N[C@@H](C)C(=O)N[C@@H](C)C(=O)N[C@@H](CC(C)C)C(=O)N[C@@H](C)C(=O)N[C@@H](CCCCN)C(=O)NCC(=O)N[C@H](C(=O)N[C@@H](CC(C)C)C(N)=O)[C@@H](C)CC", "UNIT_OF_MEASUREMENT": "%", "READOUT_NUMBER": 17.8169}
{"COMPOUND": "CC[C@H](C)[C@H](N)C(=O)N[C@@H](CC(N)=O)C(=O)N[C@@H](CC(C)C)C(=O)N[C@@H](CCCCN)C(=O)N[C@@H](C)C(=O)N[C@@H](CC(C)C)C(=O)N[C@@H](C)C(=O)N[C@@H](C)C(=O)N[C@@H](CC(C)C)C(=O)N[C@@H](C)C(=O)N[C@@H](CCCCN)C(=O)N[C@@H](CCCCN)C(=O)N[C@H](C(=O)N[C@@H](Cc1c[nH]cn1)C(N)=O)[C@@H](C)CC", "UNIT_OF_MEASUREMENT": "%", "READOUT_NUMBER": 14.7055}

Turning to the following compound.
Give Average (percentage cell inhibition), Dmastoparan MDA-MB231 12.5uM only, for CC[C@H](C)[C@H](N)C(=O)N[C@@H](CC(N)=O)C(=O)N[C@@H](CC(C)C)C(=O)N[C@@H](CCCCN)C(=O)N[C@@H](C)C(=O)N[C@@H](CC(C)C)C(=O)N[C@@H](C)C(=O)N[C@@H](C)C(=O)N[C@@H](CC(C)C)C(=O)N[C@@H](C)C(=O)N[C@@H](CCCCN)C(=O)N[C@H](C(=O)N[C@H](C(=O)N[C@@H](CC(C)C)C(N)=O)[C@@H](C)CC)[C@@H](C)O , using MDA-MB-231 cells data. 27.1643

###

Test system: PBMC
CONDITIONS_USED: 12.5 µM
Exercise: for every item that follows, state its recorded Average (percentage cell inhibition), Mastoparan PBMC.
Answers are plain numbers, in %.

# example entries with known answers
{"COMPOUND_SMILES": "CC[C@H](C)[C@H](N)C(=O)N[C@@H](CC(N)=O)C(=O)N[C@@H](CC(C)C)C(=O)N[C@@H](CCCCN)C(=O)N[C@@H](C)C(=O)N[C@H](C(=O)N[C@@H](C)C(=O)N[C@@H](C)C(=O)N[C@@H](CC(C)C)C(=O)N[C@@H](C)C(=O)N[C@@H](CCCCN)C(=O)N[C@@H](CCCCN)C(=O)N[C@H](C(=O)N[C@@H](CC(C)C)C(N)=O)[C@@H](C)CC)C(C)C", "UNIT_OF_MEASUREMENT": "%", "READOUT_NUMBER": -4.76}
{"COMPOUND_SMILES": "CC[C@H](C)[C@H](N)C(=O)N[C@@H](CC(N)=O)C(=O)N[C@@H](CC(C)C)C(=O)N[C@@H](CCCCN)C(=O)N[C@@H](C)C(=O)N[C@@H](CC(C)C)C(=O)N[C@@H](C)C(=O)N[C@@H](C)C(=O)N[C@@H](CC(C)C)C(=O)N[C@@H](Cc1ccc(O)cc1)C(=O)N[C@@H](CCCCN)C(=O)N[C@@H](CCCCN)C(=O)N[C@H](C(=O)N[C@@H](CC(C)C)C(N)=O)[C@@H](C)CC", "UNIT_OF_MEASUREMENT": "%", "READOUT_NUMBER": 11.2083}

For CC[C@H](C)[C@H](NC(=O)[C@H](CCCCN)NC(=O)[C@H](CCCCN)NC(=O)[C@H](C)NC(=O)[C@H](CC(C)C)NC(=O)[C@H](C)NC(=O)[C@H](C)NC(=O)[C@H](CC(C)C)NC(=O)[C@H](C)NC(=O)[C@H](CCCCN)NC(=O)[C@H](CC(C)C)NC(=O)[C@H](CC(N)=O)NC(=O)[C@@H](N)[C@@H](C)O)C(=O)N[C@@H](CC(C)C)C(N)=O , write its Average (percentage cell inhibition), Mastoparan PBMC. 14.7113
